biological target: EPHB1 (UniProt P54762); test: phosphorylation enrichment, bacterial display (enrichment ratio); higher = better substrate or ligand; peptides without Tyr show the background;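 also: 11-residue human phosphosite peptides and single-mutation variants displayed on the E. coli surface, counted by deep sequencing, each peptide's frequency after selection divided by its frequency in the unselected input library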;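 also: frequency after pTyr selection over input frequency; kinase dosed for 20-30% of maximal phosphorylation in three min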
Sequence (P54762 whole entry, looked up): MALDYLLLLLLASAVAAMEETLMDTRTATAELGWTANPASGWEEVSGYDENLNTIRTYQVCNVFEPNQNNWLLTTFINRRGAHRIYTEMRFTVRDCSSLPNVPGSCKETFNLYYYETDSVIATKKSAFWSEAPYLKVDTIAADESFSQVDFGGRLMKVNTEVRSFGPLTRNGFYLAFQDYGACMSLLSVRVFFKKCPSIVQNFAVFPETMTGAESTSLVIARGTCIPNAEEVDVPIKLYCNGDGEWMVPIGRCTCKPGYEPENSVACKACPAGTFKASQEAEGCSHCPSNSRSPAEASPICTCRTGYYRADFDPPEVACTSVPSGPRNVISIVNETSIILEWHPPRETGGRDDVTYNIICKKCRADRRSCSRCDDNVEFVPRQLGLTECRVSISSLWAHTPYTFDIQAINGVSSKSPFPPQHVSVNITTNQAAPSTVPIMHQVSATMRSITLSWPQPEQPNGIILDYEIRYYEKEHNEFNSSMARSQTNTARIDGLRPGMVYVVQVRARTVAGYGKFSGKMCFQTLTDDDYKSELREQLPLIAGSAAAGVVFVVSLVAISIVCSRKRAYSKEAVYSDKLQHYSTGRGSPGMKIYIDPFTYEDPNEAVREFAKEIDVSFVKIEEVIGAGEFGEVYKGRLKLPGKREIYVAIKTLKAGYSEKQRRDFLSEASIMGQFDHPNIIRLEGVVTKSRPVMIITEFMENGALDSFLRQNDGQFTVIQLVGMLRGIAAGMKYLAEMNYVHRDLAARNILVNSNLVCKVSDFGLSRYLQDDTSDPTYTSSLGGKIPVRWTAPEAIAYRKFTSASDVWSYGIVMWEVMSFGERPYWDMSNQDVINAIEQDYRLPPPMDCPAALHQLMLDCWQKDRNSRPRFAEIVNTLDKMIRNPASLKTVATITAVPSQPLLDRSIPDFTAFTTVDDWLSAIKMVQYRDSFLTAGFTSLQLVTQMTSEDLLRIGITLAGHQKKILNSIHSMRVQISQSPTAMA
MEASUREMENT KIND: phosphorylation enrichment
Give the figure only, with no unit attached.

## Task Report phosphorylation enrichment for TSQSQYFSFRE [CCDC170_Y323] please.
## Result 0.315

## Task What do we get for GTAPSYGNPSS [CD19_Y378] ?
## Result 0.407

## Task Item: MKGDFYRSLAE [YWHAG_Y131_Y133S_YF]
## Result 0.334

## Task And for FKGKNYKPLDL [RPL35_Y78_K77N_YF] ?
## Result 0.262

Continuing:
## Task // query phosphorylation enrichment value for entry AGIENYTSRFG [NKD2_Y256]
## Result 0.817

## Task What would you report for RPFVFYFSFLL [PTEN_Y177_R173P_YF] ?
## Result 0.838

## Task And DTQNSYGCATS [TSC1_Y304] ?
## Result 0.432

## Task How about this sequence: DSGRDYVSQFE [APOA1_Y53]
## Result 0.685

## Task Can you handle GGQVFYNSEFG [FLT4_Y1333_YF] next?
## Result 0.619

## Task Can you handle MLEVPYVDHNS [F10_Y384_R387H] next?
## Result 0.594

Where do the numbers come from? From the supplement of paper PMC10065799.
